Value source: patent US6623981B2

- Experimental system: immobilized GPIIb/IIIa (Homo sapiens, UniProt P05106+P08514)
- Construct: GPIIb/IIIa was either obtained from commercial sources (Enzyme Research Laboratories) or purified as outlined below; Outdated platelet concentrates; tissue Enzyme Research Laboratories (alternative source; no catalogue number given); host or cells: outdated platelet concentrates (Interstate Blood Bank)
- Sequence (P08514 32-887 limits assumed): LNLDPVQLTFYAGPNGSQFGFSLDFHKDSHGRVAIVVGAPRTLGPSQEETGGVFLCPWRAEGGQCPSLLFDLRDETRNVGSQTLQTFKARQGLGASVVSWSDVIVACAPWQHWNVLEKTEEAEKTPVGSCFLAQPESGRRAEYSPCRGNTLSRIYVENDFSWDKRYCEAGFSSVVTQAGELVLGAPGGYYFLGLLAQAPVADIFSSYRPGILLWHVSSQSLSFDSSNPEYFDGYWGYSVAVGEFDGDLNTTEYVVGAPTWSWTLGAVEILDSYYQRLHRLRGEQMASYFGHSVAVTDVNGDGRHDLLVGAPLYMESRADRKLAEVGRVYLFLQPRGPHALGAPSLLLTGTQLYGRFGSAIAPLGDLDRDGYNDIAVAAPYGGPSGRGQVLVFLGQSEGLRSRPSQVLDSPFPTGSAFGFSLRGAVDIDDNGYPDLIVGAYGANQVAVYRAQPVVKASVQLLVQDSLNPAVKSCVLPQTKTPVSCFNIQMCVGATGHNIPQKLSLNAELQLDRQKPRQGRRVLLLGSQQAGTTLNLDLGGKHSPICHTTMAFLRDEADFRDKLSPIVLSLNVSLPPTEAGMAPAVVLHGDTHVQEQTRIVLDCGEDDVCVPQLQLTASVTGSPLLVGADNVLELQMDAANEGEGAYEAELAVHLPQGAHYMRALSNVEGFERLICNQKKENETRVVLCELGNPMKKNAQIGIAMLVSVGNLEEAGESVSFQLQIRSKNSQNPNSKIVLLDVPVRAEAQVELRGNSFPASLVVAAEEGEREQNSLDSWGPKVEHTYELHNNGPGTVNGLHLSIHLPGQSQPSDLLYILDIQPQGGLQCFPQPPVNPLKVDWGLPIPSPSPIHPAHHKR
- Sequence (P08514 891-1039 limits assumed): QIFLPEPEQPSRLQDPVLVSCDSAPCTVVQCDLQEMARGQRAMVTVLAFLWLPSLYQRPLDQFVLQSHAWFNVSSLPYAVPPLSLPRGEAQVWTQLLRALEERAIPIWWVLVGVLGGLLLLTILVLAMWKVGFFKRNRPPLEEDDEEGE
- Sequence (P05106 27-788): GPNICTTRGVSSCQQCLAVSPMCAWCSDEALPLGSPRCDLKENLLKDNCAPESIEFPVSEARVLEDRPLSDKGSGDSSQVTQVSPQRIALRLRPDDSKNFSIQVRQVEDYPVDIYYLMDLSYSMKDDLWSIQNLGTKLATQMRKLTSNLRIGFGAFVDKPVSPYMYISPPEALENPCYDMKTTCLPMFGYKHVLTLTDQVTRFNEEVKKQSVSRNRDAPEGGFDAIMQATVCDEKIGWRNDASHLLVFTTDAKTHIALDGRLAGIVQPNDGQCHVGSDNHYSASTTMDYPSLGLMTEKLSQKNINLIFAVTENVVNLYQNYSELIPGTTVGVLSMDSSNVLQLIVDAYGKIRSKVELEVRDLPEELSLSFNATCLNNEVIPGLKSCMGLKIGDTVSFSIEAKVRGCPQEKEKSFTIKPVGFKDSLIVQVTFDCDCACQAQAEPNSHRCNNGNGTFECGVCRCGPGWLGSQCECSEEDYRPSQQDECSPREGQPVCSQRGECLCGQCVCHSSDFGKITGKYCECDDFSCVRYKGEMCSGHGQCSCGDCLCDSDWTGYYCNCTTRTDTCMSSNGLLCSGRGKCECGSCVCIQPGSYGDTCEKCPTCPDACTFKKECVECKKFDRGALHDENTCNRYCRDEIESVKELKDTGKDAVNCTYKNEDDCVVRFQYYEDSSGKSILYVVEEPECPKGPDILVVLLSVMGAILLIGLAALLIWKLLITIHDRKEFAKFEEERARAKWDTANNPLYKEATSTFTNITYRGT
- Protocol: GPIIb/IIIa DDAB ELISA: binding of plasma drug-dependent antibodies in presence versus absence of GPIIb/IIIa antagonist
- Cond: plasma #330 (thrombocytopenic patient treated with Compound A); antagonist 100 nM
Listing of entries alongside the reported ratio mOD/minute in the presence versus absence of the respective compound.
Endpoint: ratio mOD/minute in the presence versus absence of the respective compound

>>> print(df.to_string())
                               query_smiles  observed_value
0  Cc1noc(C)c1S(=O)(=O)N[C@@H](CNC(=O)C[C@H]1CC(c2ccc(C(=N)N)cc2)=NO1)C(=O)O            11.2
1  Cc1ccc(S(=O)(=O)N[C@@H](CNC(=O)c2cc3n(n2)CCCN(CCC2CCNCC2)C3=O)C(=O)O)cc1             1.0
2  O=C(NC[C@H](NS(=O)(=O)c1cccnc1)C(=O)O)c1cc2cc(CCC3CCNCC3)sc2s1             4.9
3  CCCCOC(=O)N[C@@H](CNC(=O)C[C@H]1CC(c2ccc(C(=N)N)cc2)=NO1)C(=O)O             9.2

----------
- Experimental system: immobilized GPIIb/IIIa (Homo sapiens, UniProt P05106+P08514)
- Construct: GPIIb/IIIa was either obtained from commercial sources (Enzyme Research Laboratories) or purified as outlined below; Outdated platelet concentrates; tissue Enzyme Research Laboratories (alternative source; no catalogue number given); host or cells: outdated platelet concentrates (Interstate Blood Bank)
- Protocol: GPIIb/IIIa DDAB ELISA: binding of plasma drug-dependent antibodies in presence versus absence of GPIIb/IIIa antagonist
- Cond: plasma A264 (thrombocytopenic chimpanzee dosed with Compound D); antagonist 100 nM
Listing of entries alongside the reported ratio mOD/minute in the presence versus absence of the respective compound.
Endpoint: ratio mOD/minute in the presence versus absence of the respective compound

                               query_smiles  observed_value
0  Cc1noc(C)c1S(=O)(=O)N[C@@H](CNC(=O)C[C@H]1CC(c2ccc(C(=N)N)cc2)=NO1)C(=O)O             0.8
1  O=C(NC[C@H](NS(=O)(=O)c1cccnc1)C(=O)O)c1cc2cc(CCC3CCNCC3)sc2s1            14.4
2  CCCCOC(=O)N[C@@H](CNC(=O)C[C@H]1CC(c2ccc(C(=N)N)cc2)=NO1)C(=O)O             1.0
3  Cc1ccc(S(=O)(=O)N[C@@H](CNC(=O)c2cc3n(n2)CCCN(CCC2CCNCC2)C3=O)C(=O)O)cc1             5.4

----------
- Experimental system: immobilized GPIIb/IIIa (Homo sapiens, UniProt P05106+P08514)
- Construct: GPIIb/IIIa was either obtained from commercial sources (Enzyme Research Laboratories) or purified as outlined below; Outdated platelet concentrates; tissue Enzyme Research Laboratories (alternative source; no catalogue number given); host or cells: outdated platelet concentrates (Interstate Blood Bank)
- Protocol: GPIIb/IIIa DDAB ELISA: binding of plasma drug-dependent antibodies in presence versus absence of GPIIb/IIIa antagonist
- Cond: patient's plasma, in words
Endpoint: reactivity of the patient's plasma in the DDAB ELISA

>>> df
                               query_smiles                       experimental_system   observed_value
0  Cc1noc(C)c1S(=O)(=O)N[C@@H](CNC(=O)C[C@H]1CC(c2ccc(C(=N)N)cc2)=NO1)C(=O)O  immobilized GPIIb/IIIa (Homo sapiens, UniProt P05106+P08514)  reacts strongly
1  CCCCOC(=O)N[C@@H](CNC(=O)C[C@H]1CC(c2ccc(C(=N)N)cc2)=NO1)C(=O)O  immobilized GPIIb/IIIa (Homo sapiens, UniProt P05106+P08514)  reacts strongly
2  O=C(NC[C@H](NS(=O)(=O)c1cccnc1)C(=O)O)c1cc2cc(CCC3CCNCC3)sc2s1  immobilized GPIIb/IIIa (Homo sapiens, UniProt P05106+P08514)  reacts strongly
